IC50 reference
- TEST TARGET: UniProt Q92993
- Sequence (Q92993 other isoform, or with tags, fused parts or gaps): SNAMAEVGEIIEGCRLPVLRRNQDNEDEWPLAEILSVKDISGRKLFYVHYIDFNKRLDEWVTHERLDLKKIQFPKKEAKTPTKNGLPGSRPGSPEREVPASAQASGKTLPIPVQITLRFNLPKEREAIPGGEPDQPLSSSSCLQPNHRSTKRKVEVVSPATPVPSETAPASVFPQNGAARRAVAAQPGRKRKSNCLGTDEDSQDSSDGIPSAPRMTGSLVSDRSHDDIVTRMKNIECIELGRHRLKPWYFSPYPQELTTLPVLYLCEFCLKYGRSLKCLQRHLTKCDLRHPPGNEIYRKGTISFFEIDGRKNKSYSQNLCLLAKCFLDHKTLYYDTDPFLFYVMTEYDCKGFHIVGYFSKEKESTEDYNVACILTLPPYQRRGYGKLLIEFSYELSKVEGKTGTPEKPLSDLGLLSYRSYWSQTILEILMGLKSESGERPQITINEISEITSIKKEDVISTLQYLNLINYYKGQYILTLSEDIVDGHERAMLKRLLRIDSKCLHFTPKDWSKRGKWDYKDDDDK
- ASSAY: KAT-5 biochemical inhibition assay (SAMDI mass spectrometry)

Before answering, review these 3 worked examples.
> print(dat)
                                   compound     observed
1  Cc1nc(-c2cc(Cl)c(F)c(C(=O)NNS(=O)(=O)CC3CCOCC3)c2)cs1  10 to 50 µM
2  CNC1CCC(CS(=O)(=O)NNC(=O)c2cc(-c3cn(C)cn3)cc(Cl)c2F)CC1 (stereo not drawn)  10 to 50 µM
3  Cc1ccnc(-c2cc(Cl)c(F)c(C(=O)NNS(=O)(=O)CC3CCOCC3)c2)c1      < 10 µM

Tell us which IC50 value is on record for COc1ccc(CNC(=O)NC2CCC(CS(=O)(=O)NNC(=O)c3cc(-c4cn(C)cn4)cc(Cl)c3F)C2)cc1 (stereo not drawn) < 10 µM

Respond only with IC50 recorded for "Cn1cnc(-c2cc(Cl)c(F)c(C(=O)NNS(=O)(=O)c3ccc(=O)[nH]c3)c2)c1" 10 to 50 µM

Write down IC50 measured for item "COCCOc1cccc(S(=O)(=O)NNC(=O)c2cc(-c3cn(C)cn3)cc(Cl)c2F)c1" < 10 µM

Give the measured IC50 for "Cn1cnc(-c2cc(Cl)c(F)c(C(=O)NNS(=O)(=O)C[C@H]3CCCO3)c2)c1" < 10 µM

Specify IC50 for COCCn1cnc(-c2cc(C)c(F)c(C(=O)NNS(=O)(=O)CC3CCCN(C(=O)OC(C)(C)C)C3)c2)c1 (stereo not drawn) and stop. < 10 µM

Return reported IC50. Input compound: "Cn1cnc(-c2cc(Cl)c(F)c(C(=O)NNS(=O)(=O)C[C@H]3CCN(C(=O)OC(C)(C)C)C3)c2)c1" 10 to 50 µM

Supply measured IC50 of "Cn1cnc(-c2cc(Cl)c(F)c(C(=O)NNS(=O)(=O)CC3(F)CCCCC3)c2)c1" in your reply. < 10 µM

Consider the compound CC(C1CCCCC1)S(=O)(=O)NNC(=O)c1cc(-c2cn(C)cn2)cc(Cl)c1F (stereo not drawn) . State its measured IC50. < 10 µM

All values here come from patent US11685732B2.
